- target: alpha7 nAChR (Rattus norvegicus, UniProt Q05941)
- Construct: expressed in transfected cells
- Sequence (Q05941 23-502): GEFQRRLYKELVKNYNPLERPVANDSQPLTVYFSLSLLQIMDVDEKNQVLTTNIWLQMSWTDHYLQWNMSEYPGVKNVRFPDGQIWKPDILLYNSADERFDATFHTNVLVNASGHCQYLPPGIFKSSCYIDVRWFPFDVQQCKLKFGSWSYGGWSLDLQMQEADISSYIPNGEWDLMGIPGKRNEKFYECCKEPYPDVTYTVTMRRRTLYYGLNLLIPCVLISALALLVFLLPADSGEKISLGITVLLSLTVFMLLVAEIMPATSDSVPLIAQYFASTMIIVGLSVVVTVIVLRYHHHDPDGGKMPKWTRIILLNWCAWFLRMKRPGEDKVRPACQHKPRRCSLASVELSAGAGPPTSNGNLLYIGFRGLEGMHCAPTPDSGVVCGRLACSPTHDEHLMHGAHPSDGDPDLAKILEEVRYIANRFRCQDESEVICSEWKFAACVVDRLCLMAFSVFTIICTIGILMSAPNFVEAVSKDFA
- experiment: cell-based
- runParameters: agonist concentration-response, 0.001 to 30 microM; alpha7 nAChR stably expressed in GH4C1 cells; read-out: EC50
pEC50: −log10 of the molar value.

{"smilesStructure": "C[N+]1(C)CCN(c2ccccc2)CC1", "pEC50": 6.01}

----------
- target: alpha7 nAChR (Rattus norvegicus, UniProt Q05941)
- Construct: expressed in transfected cells
- experiment: cell-based
Items are presented alongside their recorded EC50.

{"compound": "O=c1cccc2n1C[C@@H]1CNC[C@H]2C1 [Cytisine, cytisine]", "EC50 / µM": 1.21}
{"compound": "C[N+](C)(C)CCO [Choline, choline]", "EC50 / µM": 24.2}
